Test system: SF-268 CNS
Assay Remarks: NCI-60 one-dose screen, 48 h (100 = growth as untreated, 0 = no growth, -100 = all killed)
Experimental Parameters: 10 µM unless noted
Procedure: Cells are grown in 96 well plates and exposed to the test compound for 48 hours. Compounds are tested at a single concentration, which is 10^-5 M for most compounds. The reported endpoint is percent growth (GI% or GIPRCNT), where numbers from 0 - 100% represent growth inhibition, and numbers from -100% - 0 represent cell death. For example, a value of 40 represents 60% growth inhibition. A value of 0 means no net growth occurred over the course of the experiment. […]
Compounds without any hit were thinned out: in the full panel of roughly 83,000, 20% have a hit.
Decision: growth beneath 60% gives YES; growth meeting or exceeding 60% gives NO.

INSERT INTO assay_data (chem_smiles, answer_label) VALUES
  ('Cc1ccc(/C=C2\COc3ccc(O)cc3C2=O)cc1', 'NO'),
  ('O=C(Nc1ccccc1)Nc1ncnc2c1ncn2-c1ccc(Cl)cc1', 'NO'),
  ('O=C(O)c1cn(C2CC2)c2cc(N3CCN(C(=O)N(c4ccccc4)c4nc(-c5ccccc5)cs4)CC3)c(F)cc2c1=O', 'YES'),
  ('O=C1/C(=C\c2ccc3nccnc3c2)SC(=S)N1CCc1ccc(O)cc1', 'NO'),
  ('N#Cc1nc(-c2ccccc2)oc1S(=O)(=O)N1CCN(c2ccccc2)CC1', 'NO'),
  ('Clc1cc(Cl)c(Cl)c(-c2nnc(SCc3ccncc3Br)o2)c1', 'NO'),
  ('Cc1ccc(Nc2cc(N)nc(N)n2)cc1Cl', 'NO');

Please turn your attention to the following entry.
Task item: Please let me know if Nc1ncc(-c2ccc3ncnc(Nc4cccc(Cl)c4)c3c2)cn1 shows growth below 60%.
Reply: YES

* * *

Tested on: A498 renal
Assay Remarks: NCI-60 one-dose screen, 48 h
Experimental Parameters: 10 µM unless noted
The panel holds about 83,000 compounds, 20% with a hit somewhere; the sample as a whole holds those more often. Activity calls are given as the source filed them. Rule for the calls: active = growth percent below 10; inactive = the rest.
// allowed return values: yes (1) for active, no (0) for inactive

# count of solved cases: 4
INSERT INTO assay_data (compound, answer_label) VALUES
  ('CC1OC(n2c3ccccc3c3c4c(c5c6ccccc6[nH]c5c32)C(=O)N(CCN2CCCC2)C4=O)CC(O)C1O (centres undefined)', 'no (0)'),
  ('NS(=O)(=O)c1ccccc1NC(=O)Nc1nc2ccccc2s1', 'no (0)'),
  ('Cc1ccc(Nn2c(SCC(=O)Nc3nc(-c4ccccc4)cs3)nc(C)c2C)cc1', 'no (0)'),
  ('COc1cc2ncnc(Nc3ccc(F)c(Cl)c3)c2cc1OCC(=O)N1CCN(c2ccccc2)CC1', 'no (0)');

Task item: Fill in: this test's call for c1csc(-c2ccc(CNc3c4ccccc4nc4ccccc34)cc2)c1 is ___
Reply: yes (1)

Task item: Outcome? CC(=O)Oc1ccc(/C(=C(\C)c2ccc(Cl)cc2)c2ccc(OCCN3CCCCC3)cc2)cc1
Reply: no (0)

Task item: How did this test come out for CS(=O)(=O)Nc1cncc(-c2ccc3ncnc(Nc4cncc(Cl)c4)c3c2)c1 ?
Reply: no (0)

Task item: Can you look up the reported call for CNc1nnc2n(-c3ccccc3)c(=O)c3cnn(-c4ccccc4)c3n12 for me?
Reply: no (0)

Task item: Status in this test for CC(C)=CCC[C@](C)(O)[C@H]1CC[C@]2(C)[C@@H]1CC[C@@H]1[C@@]3(C)C/C(=C/c4ccco4)C(=O)C(C)(C)[C@@H]3CC[C@]12C ?
Reply: no (0)
